Reference source for all entries: paper PMC4208851

Target: γ-secretase (Homo sapiens)
Construct: The solubilized membrane preparations of A549 (16.5 µg total protein) were incubated with 100 µM LMDP or LMDP-lipo; endogenous in cells; host or cells: A549 cells, CHAPSO-solubilized membrane fraction
Assay: Cleavage of fluorescence-quenching substrate peptide probe by γ-secretase in solubilized A549 membrane fraction (competitive inhibition / inhibitor test)
Format: biochemical
Settings: A549 solubilized membrane 16.5 µg protein, 5 µM peptide substrate, 0-100 µM LMDP, 37°C overnight, fluorescence ex 355/em 440 nm, n = 3; read-out: IC50, competitive inhibition of cleavage of fluorescent substrate peptide probe
Method: The membrane fraction was prepared according to previous reports. All procedures were carried out on ice. Cultured HeLa cells, A549 cells, MCF-7 cells and HUEhT-2 cells (about 1×10^8 cells) were pelleted. […] The total protein concentration was determined with a BCA Protein Assay Kit (Thermo scientific). […] To study LMDP cleavage by γ-secretase, the competitive inhibitory effect of LMDP or LMDP-lipo on the cleavage of the peptide substrate (the same as that used in 2.2) was evaluated. […]
Where no end group is shown, it is not given here.
propertyName: IC50
Answer shape: numeric part, then the unit.

Quick check: IC50 of LHLMYVAAAAFVLLFFVGCGVLLSRKRRR [LMDP] ?
29 µM
